# targetEntity: RORγ (Homo sapiens)
# Construct: expressed in transfected cells; host or cells: 293FT cells (Invitrogen), expression vector pFN26A (Promega)
# Sequence (P51449 269-508 limits assumed): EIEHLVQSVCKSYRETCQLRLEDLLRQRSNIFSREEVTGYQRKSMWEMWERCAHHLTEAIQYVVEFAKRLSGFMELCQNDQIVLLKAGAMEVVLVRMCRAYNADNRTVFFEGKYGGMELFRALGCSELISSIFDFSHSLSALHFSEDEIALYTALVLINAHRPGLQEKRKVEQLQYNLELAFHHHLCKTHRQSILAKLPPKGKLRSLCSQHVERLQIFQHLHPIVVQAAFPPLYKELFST
# protocolDescription: RORγ GAL4 reporter gene assay (luciferase readout, 293FT cells)
# Format: cell-based
# settings: inhibition of RORγ (GAL4-RORγ-LBD) in transfected 293FT cells, luciferase signal, overnight incubation; read-out: mean pIC50 (converted)
# Procedure: RORγ GAL4 Reporter Gene Assay Example inhibitors 1-47 were tested for their ability to inhibit RORγ activity in a RORγ GAL4 reporter gene assay. The assay procedure and results are described below. RORγ GAL4 Reporter Gene Assay Description A GAL4 one-hybrid reporter system employing luciferase readout was established to determine inhibition of RORγ in 293FT cells. […] For compound screening, the cells were harvested (as described above) and counted. […]
# IC50 per record follows
measuredParameter: IC50

INSERT INTO assay_data (linenotation, targetentity, resultvalue) VALUES
  ('O=C(Cc1ccc(S(=O)(=O)CC2CC2)cc1)Nc1nc(-c2cccc(Cl)c2)c(C(=O)c2ccc(Cl)cc2)s1', 'RORγ (Homo sapiens)', '≤ 100 nM'),
  ('Cc1cc(NC(=O)Cc2ccc(S(=O)(=O)NC3CC3)cc2)ncc1-c1ccccc1OC(F)(F)F', 'RORγ (Homo sapiens)', '≤ 1000 nM'),
  ('COc1cccc(Oc2cc(NC(=O)Cc3ccc(S(=O)(=O)NC4CC4)cc3)ccc2-c2cccc(F)c2)c1', 'RORγ (Homo sapiens)', '≤ 1000 nM'),
  ('O=C(Cc1ccc(S(=O)(=O)CC2CC2)cc1)Nc1ccc(-c2ncon2)cc1', 'RORγ (Homo sapiens)', '≤ 1000 nM'),
  ('Cc1cnn(-c2ccc(NC(=O)Cc3ccc(S(=O)(=O)CC4CC4)cc3)cc2)c1', 'RORγ (Homo sapiens)', '≤ 1000 nM'),
  ('O=C(Cc1ccc(S(=O)(=O)CC2CC2)cc1)Nc1ccc(-c2cccc(F)c2)c(Oc2cccc(C(F)(F)F)c2)c1', 'RORγ (Homo sapiens)', '≤ 100 nM'),
  ('Cc1cc(NC(=O)Cc2ccc(S(=O)(=O)CC3CC3)cc2)ccc1-c1ccccc1OC(F)(F)F', 'RORγ (Homo sapiens)', '≤ 100 nM');

* * *

# targetEntity: RORγ (Homo sapiens)
# Construct: expressed in transfected cells; host or cells: 293FT cells (Invitrogen), expression vector pFN26A (Promega)
# protocolDescription: RORγ GAL4 reporter gene assay (luciferase readout, 293FT cells)
# Type: cell-based
# settings: inhibition of RORγ (GAL4-RORγ-LBD) in transfected 293FT cells, luciferase signal, overnight incubation; read-out: mean pIC50 (converted)
measuredParameter: IC50

INSERT INTO assay_data (linenotation, resultvalue) VALUES
  ('Cc1cc(NC(=O)Cc2ccc(S(=O)(=O)NC3CC3)cc2)ccc1-c1ccccc1OC(F)(F)F', '≤ 100 nM'),
  ('COc1cccc(Oc2cc(NC(=O)Cc3ccc(S(=O)(=O)CC4CC4)cc3)ccc2-c2cccc(F)c2)c1', '≤ 100 nM'),
  ('COc1cccc(Oc2cc(NC(=O)Cc3ccc(S(=O)(=O)NC4CC4)cc3)ccc2-n2cnc(C)c2)c1', '≤ 1000 nM'),
  ('Cc1ccnn1-c1ccc(NC(=O)Cc2ccc(S(=O)(=O)CC3CC3)cc2)cc1', '≤ 1000 nM'),
  ('O=C(Cc1ccc(S(=O)(=O)CC2CC2)cc1)Nc1nc(-c2ccccc2)c(C(=O)c2ccccc2)s1', '≤ 100 nM'),
  ('O=C(Cc1ccc(S(=O)(=O)CC2CC2)cc1)Nc1cc(-c2ccccc2)c(C(=O)c2ccccc2)s1', '≤ 100 nM');
